target system: T1, cynomolgus LAG3 on cells (cynomolgus)
T1 construct: whole, on cells; also called cyno-LAG-3; cynoLAG3
protocol text: flow cytometry on HEK293F cells transfected with cyno-LAG-3, antibody 10 µg/ml
Item-by-item account of % pos.
Field format: number, assumed %, no unit text.

Inquiry: Quick one: give measured % pos. for aLAG3(0411) (antibody, V domains shown, also called aLAG3 (411)) VH: EVHLLESGGGLVQPGGSLRLSCAASGFIVDDYTMNWVRQAPGKGLEWVSVISWDGGATYYADSVKGRFTISRDDFKNTLYLQMNSLRAEDTAVYYCAKGLTDDTLYGSDYWGQGTLVTVSS VL: DIQMTQSPSSLSASVGDRVTITCRASQSIVSYLNWYQQKPGKAPKLLIYASSSLQSGVPSRFSGSGSGTDFTLTISSLQPEDFATYYCQQTYSTPLTFGGGTKVEIK
Reply text: 88.6

Inquiry: Quick one: give measured % pos. for Reference LAG3 antibody MDX25F7 (antibody, V domains shown, also called MDX-25F7 (25F7); Medarex 25F7) VH: QVQLQQWGAGLLKPSETLSLTCAVYGGSFSDYYWNWIRQPPGKGLEWIGEINHNGNTNSNPSLKSRVTLSLDTSKNQFSLKLRSVTAADTAVYYCAFGYSDYEYNWFDPWGQGTLVTVSS VL: EIVLTQSPATLSLSPGERATLSCRASQSISSYLAWYQQKPGQAPRLLIYDASNRATGIPARFSGSGSGTDFTLTISSLEPEDFAVYYCQQRSNWPLTFGQGTNLEIK
Reply text: 41.2

Inquiry: Quick one: give measured % pos. for aLAG3(0414) (antibody, V domains shown) VH: EVQLLESGGGLVQPGGSLRLSCAASGFIFDDYTMNWVRQAPGKGLEWVAVISWDGGGTYYTDSVKGRFTISRDDFKNTLYLQMNSLRAEDTAVYYCAKGLTDTTLYGSDYWGQGTLVTVSS VL: DIQMTQSPSSLSASVGDRVTITCRASQSISSYLNWYQQKPGKAPKLLIYAASTLQSGVPSRFSGSGSGTDFTLTISSLQPEDFATYYCQQTYSSPLTFGGGTKVEIKG
Reply text: 81.6

Inquiry: Quick one: give measured % pos. for aLAG3(0416) (antibody, V domains shown) VH: EVQLVESGGGLVQPGGSLRLACAASGFTFSDYAMSWVRQAPGKGLEWVSGIDNSGYYTYYTDSVKGRFTISRDDVKNTLYLQMNSLRAEDTAVYLCTKTHSGLIVNDAFDIWGQGTMVTVSS VL: DIQLTQSPSSLSASVGDRVTITCRASQSISSYLNWYQQKPGKAPKLLIYDASSLESGVPSRFSGSGSGTDATLTISSLQPEDFATYYCQQSYSTPLTFGGGTKVEIKG
Reply text: 67.9

The measured values listed here are drawn from patent US20220387586A1.
